System: LXFL 529
measurement_description: NCI tumour cell line growth inhibition, 48 h
Active and inactive are the calls of the source. No stated cut-off is given here; in the data, active = GI50 up to about 1.1 µM and inactive = higher.
Answer with one of the outcomes active, inactive

A selection of reference data follows.
- O=C(Cc1nc2ccccc2s1)NC12CC3CC(CC(C3)C1)C2: inactive
- Cn1ncc2c(Nc3ccc(Cl)cc3)c3ccccc3nc21: inactive
- COC(=O)/C(=N\NC(N)=S)C(C#N)c1ccccc1 (stereo not drawn): inactive
- O=C(O)COc1ccc(C(=O)/C(SS/C(C(=O)c2ccc(OCC(=O)O)c(Cl)c2Cl)=C2\C=C(c3ccc(F)cc3)SS2)=C2/C=C(c3ccc(F)cc3)SS2)c(Cl)c1Cl: inactive
- Fc1ccc2c(c1)cc1ccc3cccc4ccc2c1c34: inactive

Exercise: For COc1ccc2ccc3c(c2c1)CN1CCc2cc(OC)c(OC)cc2C1C3 (stereo not drawn) , what call appears in the results of this test?
Key: inactive

Exercise: Just curious, what result did CC(C)(C)N/N=C(\C(=O)Nc1cccc(Cl)c1)C1C(=O)Nc2ccccc2[S+]1[O-] (stereo not drawn) get here?
Key: inactive

---

Test system: LOX IMVI
measurement_description: NCI tumour cell line growth inhibition, 48 h
Structures can show the parent of a compound that is named as a salt. Calls of active or inactive are those of the source. Rule as the data show it: active = GI50 up to about 1.1 µM and inactive = higher.
Write down one outcome, taken from active, inactive

Exercise: Can you look up the reported call for COC(=O)/C(C#N)=C1\NC(=O)c2ccccc21 for me?
Key: inactive

Exercise: Name the outcome recorded for Clc1cccc(Cl)c1C1SCc2nc3ccccc3n21 (stereo not given) in the assay.
Key: inactive

Exercise: What was the test verdict on COc1ccc2c(=O)c(C)c(-c3ccccc3)oc2c1CN(C)C [DIMEFLINE HYDROCHLORIDE] ?
Key: inactive

Exercise: For O=C1c2ccccc2C(=O)c2c1ccc(C(=O)O)c2-c1ccc2ccccc2c1 , what call appears in the results of this test?
Key: inactive

---

Test system: SF-268
measurement_description: NCI tumour cell line growth inhibition, 48 h
Activity calls are given as the source filed them. Cut-off read from the data, not from the text of the source: active = GI50 up to about 1.1 µM and inactive = higher.
In this exercise, the only acceptable responses are label 1 = active, label 0 = inactive

Illustrative cases are given below, each with its answer.
- COc1ccc(Cn2nc(OCc3ccccc3)c3cc([N+](=O)[O-])ccc32)cc1: label 0
- CCc1ccc(/C=C/C(=O)C2CN(CC)CCC2(O)/C=C/c2ccc(CC)cc2)cc1 (stereo not given): label 0
- OCCN(/N=C\c1ccc2ccccc2c1)C1=NCCN1: label 0
- CSC[S+]([O-])C[C@H](CO)NC(=O)/C=C/c1c(C)[nH]c(=O)[nH]c1=O (stereo not given in full): label 1

Exercise: Check the results log: what was the call for OCC(O)C(O)C(O)c1nn(-c2ccc(F)cc2)c2nc3cc(Cl)c(Cl)cc3nc12 (stereo not given) ?
Key: label 0

Exercise: Could you please tell me the result logged for O=C(O)c1cc(/N=N/c2ccc([As](=O)(O)O)cc2)ccc1O in this assay?
Key: label 0

Exercise: Assay outcome for Cc1cc2cc3c(O)nc(O)nc3nc2cc1C : what was it?
Key: label 0

Exercise: For CN(C)c1ccc(/C=C(/C(=O)O)c2csc(-c3nc(/C(=C\c4ccc(N(C)C)cc4)C(=O)O)cs3)n2)cc1 , what call appears in the results of this test?
Key: label 0

Exercise: Please state the recorded outcome for this compound: CC(C)(C)CC(C)(C)c1ccc(O)c(C[N+](C)(C)[O-])c1
Key: label 0

Exercise: For C[s+]1c2ccccc2c2ccccc21 , which call appears in the assay record?
Key: label 0

Exercise: Tell me the recorded outcome of this test for CCCCNc1nc(SC)nc2[nH]cnc12 .
Key: label 0

Exercise: Which outcome was assigned to CC(Oc1ccc2c(-c3ccc(Cl)cc3)cc(=O)oc2c1)C(=O)O (stereo not given) in this test?
Key: label 0

Exercise: Check the results log: what was the call for O=C1C=CC(=O)C(CNc2ccc(C(=O)OC34CC5CC(CC(C5)C3)C4)cc2)=C1 ?
Key: label 0

---

Tested on: RPMI-8226
measurement_description: NCI tumour cell line growth inhibition, 48 h
Activity calls are given as the source filed them. No stated cut-off is given here; in the data, active = GI50 up to about 1.1 µM and inactive = higher.
measurement_type: GI50

Please review the entries below; each comes with its answer.
• O=C(O)Cc1ccccc1 = > 100 µM (inactive)
• OC(c1cc(C23CC4CC(CC(C4)C2)C3)nc2c(Cl)cc(Cl)cc12)C1CCCCN1 (stereo unspecified) = 1.77 µM (inactive)
• CCOc1c(OC)cc(C2c3cc4c(c(OCC)c3CC3COC(=O)C32)OCO4)cc1OC (stereo unspecified) = 3.75 µM (inactive)

Exercise: Which value of GI50 has been reported for CCc1cccc(C(C)C)c1NC(=O)C(=O)Nn1c(S)nc2ccccc2c1=O in the records?
Key: > 100 µM (inactive)

Exercise: Given Nn1c(S)nnc1C12CC3CC(CC(C3)C1)C2 , state its recorded GI50.
Key: > 100 µM (inactive)

Exercise: Name the recorded GI50 for CC1=C(C#N)C2C(=C(N)Oc3ccccc32)C(N)=N1 (stereo unspecified) .
Key: 24 µM (inactive)

---

Test system: NCI-H23
measurement_description: NCI tumour cell line growth inhibition, 48 h
Calls of active or inactive are those of the source. No stated cut-off is given here; in the data, active = GI50 up to about 1.1 µM and inactive = higher.
Choose the fitting class; nothing outside y (active), n (inactive) is accepted.

Example entries and their recorded answers appear below.
- N#C/C(=C\c1cc(OCc2ccccc2)c(OCc2ccccc2)cn1)C(N)=O: n
- CC1(C)OC(=O)N(c2ccccc2)C12C=Cc1cc([N+](=O)[O-])cc([N+](=O)[O-])c1O2 (stereo not given): n
- Nn1c(CCCCCCCCc2nnc(COc3ccc4ccccc4c3O)n2N)nnc1COc1ccc2ccccc2c1O: n
- Cc1c(Cl)c(S(N)(=O)=O)cc2c1N=CNS2(=O)=O: n
- C[N+](C)(C)CCOP(=O)([O-])OCCNC(=O)c1ccc2ccccc2c1: n
- NS(=O)(=O)c1cc2c(cc1Cl)NCNS2(=O)=O [HYDROCHLOROTHIAZIDE]: n
- C=C(C)C1Cc2c(c3ccccc3n(C)c2=O)O1 (stereo not given): n
- CC(=O)Nc1ccccc1S(=O)(=O)c1ccccc1: n
- O=C1c2ccccc2C(=O)c2c1ccc(C(=O)O)c2-c1ccc2ccccc2c1: n
- Cc1ccc(C2(N3CCCC3)OC(C)(C)c3cccc4cccc2c34)cc1 (stereo not given): n

Exercise: Give the logged outcome of this assay for the following compound: O=C1c2ccccc2C(=O)N1CC#CCO
Key: n

Exercise: Tell me the assay call for CC(C)(C)c1cc(C(O)(C(F)(F)F)C(F)(F)F)c2c(c1)C(C(F)(F)F)(C(F)(F)F)OC(C)(C(C)(C)C)N2 (stereo not given) please.
Key: n

Exercise: Field: outcome | Entry: COc1ccc(/C=C/C(=O)c2cccc(C(=O)/C=C/c3ccc(OC)c(OC)c3)n2)cc1OC
Key: n

Exercise: Which outcome was entered for the compound O=C1C2CC=CCC2C(=O)C12CCc1ccccc12 (stereo not given) in this test?
Key: n

Exercise: Just curious, what result did C=C(C)C(=O)/N=C(\N)NC#N get here?
Key: n

Exercise: Dear all, I need the recorded test outcome for COc1cc2c(c(N)c1OC)C(=O)/C(=C/c1cc(C)c(O)c(C)c1)C2 , thank you.
Key: y

Exercise: // outcome(item) with item = N#Cc1cccc(N2C(=O)C3C4C=CC(C3C2=O)C2C(=O)N(c3cccc(C#N)c3)C(=O)C42)c1 (stereo not given)
Key: n

Exercise: Which outcome did this test record for the compound CCCC[C@H]1C(=O)O[C@H](C)[C@H](NC(=O)c2cccc(NC=O)c2O)C(=O)O[C@@H](C)[C@@H]1OC(=O)CC(C)C [ANTIMYCIN A3] ?
Key: y

Exercise: What classification did CSC[S+]([O-])C[C@H](CO)NC(=O)/C=C/c1c(C)[nH]c(=O)[nH]c1=O (stereo not given in full) end up with in this test?
Key: y

Exercise: Answer briefly: the call reported for COC(=O)C1(Cc2ccccc2)Cc2ccccc2C1 in this assay.
Key: n

---

Test system: SR
measurement_description: NCI tumour cell line growth inhibition, 48 h
Activity calls are given as the source filed them. Cut-off read from the data, not from the text of the source: active = GI50 up to about 1.1 µM and inactive = higher.
measurement_type: GI50

See these solved cases before continuing.
* C/C1=C\[C@@H](O)C(=O)/C=C/C=C\c2csc(n2)[C@@H](C)NC(=O)C[C@@]2(CC1)[S+]([O-])SC(=O)[C@]2(C)O (stereo not given in full) | 0.00327 µM (active)
* O=C(O)C(/C=C/c1ccccc1)c1ccccc1 (stereo not given) | 5.11 µM (inactive)
* COc1cc(Oc2nc3ccc(C(F)(F)F)cc3nc2-c2ccccc2)cc(OC)c1OC | 34 µM (inactive)
* Cn1cnc([N+](=O)[O-])c1Sc1nc2ccccc2[nH]1 | 10 µM (inactive)
* CCc1ccc(/C=C/C(=O)C2CN(CC)CCC2(O)/C=C/c2ccc(CC)cc2)cc1 (stereo not given) | 1.71 µM (inactive)
* O=C1CN(c2cccc(Cl)c2)C(=O)CN1NCNN1CC(=O)N(c2cccc(Cl)c2)CC1=O | > 100 µM (inactive)
* CCCCSc1nsc(N(C(=O)c2ccccc2)C(=O)c2ccccc2)n1 | 21.6 µM (inactive)
* Fc1ccc(NCn2nc(COc3ccccc3Cl)n(/N=C/c3ccc(-c4ccc(Cl)cc4Cl)o3)c2=S)cc1Cl | 16.6 µM (inactive)

Exercise: Please look up its GI50: Nc1n[nH]c(Nc2ccc(Cl)cc2)c1P(=O)(c1ccccc1)c1ccccc1
Key: 53.1 µM (inactive)

Exercise: Entry OCC1OC(Oc2cc(O)cc(/C=C\c3ccc(O)cc3)c2)C(O)C(O)C1O (stereo not given) : reported GI50 = ?
Key: > 100 µM (inactive)
